Target: IKZF2 (Homo sapiens, UniProt Q96SW2+Q9UKS7)
Construct: CRISPR/Cas9—mediated insertion of the HiBiT peptide tag (Promega™) to the N-terminus of the IKZF2 gene locus; endogenous in cells; host or cells: MOLT4 cells, with CRISPR/Cas9 knock-in of HiBiT at the endogenous IKZF2 locus
Sequence (Q9UKS7 whole entry): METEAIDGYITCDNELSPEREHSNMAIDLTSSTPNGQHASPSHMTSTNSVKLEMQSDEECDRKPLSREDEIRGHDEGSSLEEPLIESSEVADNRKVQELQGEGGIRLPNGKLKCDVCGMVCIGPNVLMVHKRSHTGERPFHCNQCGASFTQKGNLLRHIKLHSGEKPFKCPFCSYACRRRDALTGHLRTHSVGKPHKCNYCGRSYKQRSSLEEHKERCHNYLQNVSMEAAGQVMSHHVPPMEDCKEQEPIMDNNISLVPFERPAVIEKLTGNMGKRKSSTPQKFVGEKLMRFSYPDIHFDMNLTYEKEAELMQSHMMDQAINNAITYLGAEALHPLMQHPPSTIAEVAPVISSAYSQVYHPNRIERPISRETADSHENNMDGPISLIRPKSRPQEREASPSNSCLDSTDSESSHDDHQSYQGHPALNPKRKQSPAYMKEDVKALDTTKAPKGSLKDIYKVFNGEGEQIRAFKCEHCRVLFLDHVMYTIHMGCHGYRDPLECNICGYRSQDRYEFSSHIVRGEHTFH
Sequence (Q96SW2 whole entry): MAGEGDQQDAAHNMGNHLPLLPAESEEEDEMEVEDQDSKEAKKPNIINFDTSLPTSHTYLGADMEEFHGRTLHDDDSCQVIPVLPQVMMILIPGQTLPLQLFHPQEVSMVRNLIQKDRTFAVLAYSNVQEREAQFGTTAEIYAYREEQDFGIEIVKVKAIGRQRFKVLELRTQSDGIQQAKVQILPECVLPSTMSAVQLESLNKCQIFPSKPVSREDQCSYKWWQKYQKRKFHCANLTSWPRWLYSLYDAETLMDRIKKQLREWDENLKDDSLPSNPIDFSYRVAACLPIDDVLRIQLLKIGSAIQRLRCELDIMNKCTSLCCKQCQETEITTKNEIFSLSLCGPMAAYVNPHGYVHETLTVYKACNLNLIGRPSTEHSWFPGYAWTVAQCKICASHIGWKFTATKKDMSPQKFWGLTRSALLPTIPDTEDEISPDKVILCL
Sequence (Q16531 whole entry partner): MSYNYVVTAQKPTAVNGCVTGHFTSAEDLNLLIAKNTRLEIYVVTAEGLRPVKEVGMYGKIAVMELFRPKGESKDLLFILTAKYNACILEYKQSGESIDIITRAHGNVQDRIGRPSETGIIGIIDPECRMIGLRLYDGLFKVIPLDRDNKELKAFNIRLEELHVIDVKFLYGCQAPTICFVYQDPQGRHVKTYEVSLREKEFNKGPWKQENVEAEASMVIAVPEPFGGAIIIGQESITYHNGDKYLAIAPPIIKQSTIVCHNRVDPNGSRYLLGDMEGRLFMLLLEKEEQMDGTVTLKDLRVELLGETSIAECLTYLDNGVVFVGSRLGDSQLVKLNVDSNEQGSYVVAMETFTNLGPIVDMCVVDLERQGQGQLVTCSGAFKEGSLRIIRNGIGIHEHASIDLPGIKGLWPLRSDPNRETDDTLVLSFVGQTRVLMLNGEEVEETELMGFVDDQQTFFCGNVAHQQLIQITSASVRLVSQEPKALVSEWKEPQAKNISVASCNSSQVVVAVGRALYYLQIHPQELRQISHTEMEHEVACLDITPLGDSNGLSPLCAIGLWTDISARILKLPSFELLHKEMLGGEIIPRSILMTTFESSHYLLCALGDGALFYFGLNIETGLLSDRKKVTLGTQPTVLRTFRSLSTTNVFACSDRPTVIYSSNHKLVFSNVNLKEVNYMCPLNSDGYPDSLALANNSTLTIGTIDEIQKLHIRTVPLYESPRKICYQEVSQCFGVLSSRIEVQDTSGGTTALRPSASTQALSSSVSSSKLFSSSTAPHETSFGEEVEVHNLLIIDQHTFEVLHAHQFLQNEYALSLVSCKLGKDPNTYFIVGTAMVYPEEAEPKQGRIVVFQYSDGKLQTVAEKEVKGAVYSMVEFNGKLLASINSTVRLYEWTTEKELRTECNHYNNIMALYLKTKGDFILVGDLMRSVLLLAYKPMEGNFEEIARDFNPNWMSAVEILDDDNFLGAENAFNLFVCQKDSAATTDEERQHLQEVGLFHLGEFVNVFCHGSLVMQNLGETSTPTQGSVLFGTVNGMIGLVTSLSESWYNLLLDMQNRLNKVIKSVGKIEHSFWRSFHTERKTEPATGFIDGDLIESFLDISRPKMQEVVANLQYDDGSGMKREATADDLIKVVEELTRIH
Assay: HiBit-IKZF2 assay (HiBiT-Helios degradation in MOLT4 cells)
Type: cell-based
Settings: MOLT-4, extent of degradation from highest to lowest concentration, 10 μM to 0.00026 μM, read-out: Dmax
Consider the following compounds; for each one, report its Dmax.

Answered examples (3):
Compound	Tested System	Reported Metric	Recorded Result
O=C1CCC(N2Cc3cc(C4CCN(Cc5ccc6c(c5)C(=O)N(c5ccccc5F)C6)CC4)ccc3C2=O)C(=O)N1 (stereo not shown)	IKZF2 (Homo sapiens, UniProt Q96SW2+Q9UKS7)	Dmax	50 to 70%
Cc1ccc(N2Cc3ccc(CN4CCC(c5ccc6c(c5)CN(C5CCC(=O)NC5=O)C6=O)CC4)cc3C2=O)cc1 (stereo not shown)	IKZF2 (Homo sapiens, UniProt Q96SW2+Q9UKS7)	Dmax	50 to 70%
O=C1CCC(N2Cc3cc(C4CCN(Cc5ccnc(Nc6ccccn6)c5)CC4)ccc3C2=O)C(=O)N1 (stereo not shown)	IKZF2 (Homo sapiens, UniProt Q96SW2+Q9UKS7)	Dmax	50 to 70%

Now examine the next entry.
Fill in the blank: the reported Dmax of O=C1CCC(N2Cc3cc(C4CCN(Cc5cccc(N6CCCCC6=O)c5)CC4)ccc3C2=O)C(=O)N1 (stereo not shown) is ____.
30 to 50%
